System: CTL2-GFP (C. trachomatis L2/434/Bu, GFP-expressing)
Construct: L2/434/Bu, GFP-expressing
testName: microbe, parasite or virus in culture
Parameters: Intracellular C. trachomatis growth in HeLa cells, bulk GFP fluorescence relative to DMSO
cond: Chlamydia trachomatis, HeLa, 28.5 h; bulk GFP, mean of 2; read-out: % of control remaining
measuredAttribute: activity at 1 µM (%)
Answers are plain numbers, in %.

# per-item lookup of activity at 1 µM; items listed below
1. CC(=O)Nc1ccc(-c2cccc(COC3CCN(C(=O)c4ccc(OC(C)C)cc4)CC3)c2)cc1
2. FC(F)(F)CCN1CCC2(CC1)NCCc1c2[nH]c2ccc(Cl)cc12
3. O=C(O)c1cn(C2CC2)c2cc(N3CCN(C(=O)Cc4ccsc4)CC3)c(F)cc2c1=O
4. Cc1ccc(NC(=O)n2ccc3c(N4CCNCC4)cccc32)cc1[N+](=O)[O-] [CBK003747C]
5. Nc1cccc2c(OCCO)cccc12 [CBK001976C]
6. CN(C)c1ccc(Nc2nc(NCCO)c3ccccc3n2)cc1 [CBK268392C]
7. CN(C)CCCNC(=O)Nc1cccc(-c2nc(-c3ccc(C#N)cc3)cnc2N)c1
8. O=C(NCCCn1ccnc1)c1cc(-c2cccc(Br)c2)nc2ccccc12

Reply:
107
123
137
105
92.4
130
102
88.9

Ask: Enter reported activity at 1 µM observed with CTL2-GFP (C. trachomatis L2/434/Bu, GFP-expressing) for Cc1cc(NS(=O)(=O)c2ccc(NC(=S)NC(=O)C(C)(C)C)cc2)no1
Reply: 123

====

testName: in vitro
cond: human, hela cells, % viability
So I've got a bunch of compounds here, and I need their viability at 28.5 h, 10 µM values.
Numbers only, in %.

Solved cases below.
c1coc(CNc2cncc(-c3ccc4c(c3)OCO4)n2)c1; 101
Cc1ccc(-c2nnc(CNC(=O)c3ccccc3-c3ccccc3)o2)s1; 89.2
COc1nnc(-c2ccc(N3CCOCC3)c(NC(=O)COc3cccc(C)c3)c2)c2ccccc12; 81.9
O=c1/c(=C/c2cccnc2)sc2n1CN(c1cccc([N+](=O)[O-])c1)CN=2; 76.9

# per-item lookup of viability at 28.5 h, 10 µM; items listed below
1. O=C(NC1CCCC1)c1ccnc2ccccc12
2. O=S(=O)(c1ccc(C(F)(F)F)cc1Cl)N1CCCN(Cc2ccnc3ccccc23)CC1
3. CCOC(=O)c1ccccc1NS(C)(=O)=O
4. C[C@@H]1CNCCN1c1cc(C(F)(F)F)cc(OCc2ccccc2)n1
5. CCOc1ccc(CN2CC3CCCN3C[C@H]2C)cc1 (stereo partly drawn)

Reply:
92.6
101
101
79.1
87.8

====

testName: in vitro
cond: human, hela cells, % viability
measuredAttribute: viability at 28.5 h, 10 µM (%)
Answers are plain numbers, in %.

Solved cases below.
CCOC(=O)N1CCC(NC(=O)c2ccc(Nc3cncc(-c4ccc(O)cc4)n3)cc2)CC1; 107
COc1ccc2[nH]cc(CCNC(=O)C3CC(=O)c4ccccc43)c2c1 (stereo not shown); 97.3
COc1ccc2[nH]c3c(c2c1)CCOC31CCN(C(=O)CC(C)CC(=O)O)CC1 (stereo not shown); 100

Ask: Query (compound): Cc1nc(C(=O)N(C)C(C)c2cc3ccccc3o2)nn1-c1ccc(F)cc1 (stereo not shown) ; field requested: viability at 28.5 h, 10 µM
Reply: 108
